Kindly state EC50 for each of the entries shown.
TARGET DESC: B2-AR (Homo sapiens)
Construct: expressed in transfected cells; host or cells: CHO-K1
Sequence (P07550 whole entry, species assumed): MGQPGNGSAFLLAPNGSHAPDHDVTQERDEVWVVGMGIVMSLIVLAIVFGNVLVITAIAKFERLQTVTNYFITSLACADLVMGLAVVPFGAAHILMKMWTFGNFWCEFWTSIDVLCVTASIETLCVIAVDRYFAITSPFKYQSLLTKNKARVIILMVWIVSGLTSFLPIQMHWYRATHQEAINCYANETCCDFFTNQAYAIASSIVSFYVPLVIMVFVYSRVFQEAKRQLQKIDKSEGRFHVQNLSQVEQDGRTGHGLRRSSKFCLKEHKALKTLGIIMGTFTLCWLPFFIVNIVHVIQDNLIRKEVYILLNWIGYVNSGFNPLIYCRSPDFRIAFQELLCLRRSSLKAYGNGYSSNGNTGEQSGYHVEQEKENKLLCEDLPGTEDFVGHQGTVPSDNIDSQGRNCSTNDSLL
EXPERIMENT SUMMARY: cAMP Gs dynamic HTRF assay, cells expressing beta-adrenergic receptor (CHO-K1), B2-AR
Type: cell-based
RECORDED CONDITIONS: CHO-K1 cells, cAMP HTRF; read-out: pEC50 [B2-AR] (converted)
Experimental: cAMP homogeneous time-resolved fluorescence (HTRF): experimental methods. Compound efficacy is determined using the cAMP Gs dynamic HTRF assay (Cisbio, catalog #62AM4PEC) largely following the manufacturer's instructions, also detailed below. Standard serial dilution curves are 10-point, 5-fold dilutions starting from a highest concentration of 10 μM. […]

Solved cases (2 shown):
>  <COMPOUND STRING>
O[C@@H](CNC1CC1)c1cccc2[nH]nc(F)c12

>  <EC50>
< 10 nM

$$$$
>  <COMPOUND STRING>
CC(C)[C@@H](C)NC[C@H](O)c1cc(F)cc2[nH]ncc12

>  <EC50>
< 10 nM

$$$$

// each listed compound needs a value for EC50
1. Cc1c(Cl)[nH]c2cccc([C@@H](O)CNC(C)(C)C)c12
2. CC(C)(C)NC[C@H](O)c1cc(F)c(Cl)c2[nH]ncc12
3. Cc1n[nH]c2cccc([C@@H](O)CNC3(C)CC3)c12
4. CC(C)CNC[C@H](O)c1ccc2[nH]cc(F)c2c1

1: 100 to 1000 nM; 2: < 10 nM; 3: 10 to 100 nM; 4: 100 to 1000 nM

// each listed compound needs a value for EC50
1. Cn1ccc(CNC[C@H](O)c2ccc(F)c3[nH]ncc23)n1
2. CCC(C)(CC)NC[C@H](O)c1cccc2[nH]nc(F)c12
3. CCc1n[nH]c2cccc([C@@H](O)CNC(C)(C)C)c12
4. Cn1ncc2c([C@@H](O)CNC(C)(C)C)ccc(F)c21

1: 100 to 1000 nM; 2: < 10 nM; 3: 100 to 1000 nM; 4: < 10 nM

* * *

Kindly state EC50 for each of the entries shown.
TARGET DESC: B1-AR (Homo sapiens, UniProt P08588)
Construct: expressed in transfected cells; host or cells: CHO-K1
Sequence (P08588 whole entry, species assumed): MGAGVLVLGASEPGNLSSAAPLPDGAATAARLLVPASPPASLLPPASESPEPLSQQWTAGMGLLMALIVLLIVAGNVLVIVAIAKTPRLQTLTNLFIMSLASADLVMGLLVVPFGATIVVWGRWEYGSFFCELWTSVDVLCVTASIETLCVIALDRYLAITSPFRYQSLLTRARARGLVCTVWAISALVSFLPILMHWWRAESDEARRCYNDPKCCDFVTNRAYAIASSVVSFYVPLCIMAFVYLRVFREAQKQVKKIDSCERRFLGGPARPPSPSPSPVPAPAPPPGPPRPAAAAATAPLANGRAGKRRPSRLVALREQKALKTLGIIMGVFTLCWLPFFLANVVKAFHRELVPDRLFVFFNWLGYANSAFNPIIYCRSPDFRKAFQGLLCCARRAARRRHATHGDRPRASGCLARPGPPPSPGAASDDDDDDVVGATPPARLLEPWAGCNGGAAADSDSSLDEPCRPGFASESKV
EXPERIMENT SUMMARY: cAMP Gs dynamic HTRF assay, cells expressing beta-adrenergic receptor (CHO-K1), B1-AR
Format: cell-based
RECORDED CONDITIONS: cAMP HTRF, read-out: pEC50 [B1-AR] (converted)

// each listed compound needs a value for EC50
1. Cc1cc([C@@H](O)CNC2CC2)c2cn[nH]c2c1 [I-135]
2. CC(C)(C)CNC[C@H](O)c1cccc2c1C(F)(F)C(=O)N2 [I-63]
3. CC(C)(C)NC[C@H](O)c1cccc2[nH]nc(C(F)F)c12 [I-175]
4. CCC(C)(C)NC[C@H](O)c1cccc2[nH]nc(C)c12 [I-54]
5. CC1(NC[C@H](O)c2cccc3[nH]nc(F)c23)CC1 [I-126]

1: < 10 nM; 2: > 1000 nM; 3: 100 to 1000 nM; 4: 100 to 1000 nM; 5: < 10 nM

// each listed compound needs a value for EC50
1. Cc1c(Cl)[nH]c2cccc([C@@H](O)CNC(C)(C)C)c12 [I-115]
2. CC(C)(C)C(C)(C)NC[C@H](O)c1cccc2[nH]ncc12 [I-7]

1: > 1000 nM; 2: 100 to 1000 nM

// each listed compound needs a value for EC50
1. CC(C)CNC[C@H](O)c1ccc(Cl)c2[nH]ncc12 [I-117]
2. Cc1ncccc1[C@@H](O)CNC(C)C [I-184]
3. CC(C)(C)CNC[C@H](O)c1ccc(Cl)c2[nH]ncc12 [I-68]
4. Cc1nc(N)c(Cl)cc1[C@@H](O)CNC1CC(F)(F)C1 [I-178]

["10 to 100 nM", "> 1000 nM", "10 to 100 nM", "> 1000 nM"]

// each listed compound needs a value for EC50
1. Cc1n[nH]c2cccc([C@@H](O)CNC3(C)CCC3)c12 [I-168]
2. O[C@@H](CNC1CCC1)c1ccc(Cl)c2[nH]ncc12 [I-119]
3. CCC(C)(C)NC[C@H](O)c1cccc2[nH]ncc12 [I-47]
4. CC(C)(CO)NC[C@H](O)c1cccc2[nH]cc(F)c12 [I-109]
5. CC(C)(C)CNC[C@H](O)c1cccc2[nH]nc(F)c12 [I-90]

10 to 100 nM
< 10 nM
< 10 nM
10 to 100 nM
100 to 1000 nM

// each listed compound needs a value for EC50
1. Cc1nc(N)c(F)cc1[C@@H](CO)NC(C)(C)C [I-179]
2. CCc1n[nH]c2cccc([C@@H](O)CNC(C)(C)C)c12 [I-172]
3. CC(C)(NC[C@H](O)c1cc(F)cc2[nH]ncc12)C1CC1 [I-19]
4. C[C@H](NC[C@H](O)c1ccc(F)c2[nH]ncc12)C(C)(C)C [I-14]
5. Cc1ccc([C@@H](O)CNC(C)(C)C)c2c(F)n[nH]c12 [I-60]
6. CCC(C)(C)NC[C@H](O)c1cccc2[nH]nc(F)c12 [I-48]
7. CC1C(=O)Nc2cccc([C@@H](O)CNC(C)(C)C)c21 (stereo partly shown) [I-91]
8. Cc1ncccc1[C@@H](O)CNC1(C)CCC1 [I-177]

["> 1000 nM", "100 to 1000 nM", "< 10 nM", "100 to 1000 nM", "< 10 nM", "< 10 nM", "> 1000 nM", "> 1000 nM"]

// each listed compound needs a value for EC50
1. CC(C)CNC[C@H](O)c1cccc2[nH]nc(F)c12 [I-138]
2. CC(C)(C)NC[C@H](O)c1cc(C(F)F)cc2[nH]ncc12 [I-123]
3. Cc1n[nH]c2cccc([C@@H](O)CNC(C)(C)CO)c12 [I-173]
4. CC(C)(C)NC[C@@H](O)c1cncc2[nH]ncc12 [I-66]
5. O[C@@H](CNC1CC1)c1cccc2[nH]ncc12 [I-134]
6. Cc1n[nH]c2cccc([C@@H](O)CNC(C)C)c12 [I-170]

10 to 100 nM
> 1000 nM
100 to 1000 nM
> 1000 nM
< 10 nM
100 to 1000 nM

// each listed compound needs a value for EC50
1. CC(C)(NC[C@H](O)c1cccc2[nH]ncc12)C1CC1 [I-12]
2. CC(C)CNC[C@H](O)c1cccc2[nH]nc(Cl)c12 [I-99]
3. CC(C)(C)NC[C@H](O)c1cc(F)cc2[nH]cnc12 [I-131]
4. CC(C)(CO)NC[C@H](O)c1ccc(Cl)c2[nH]ncc12 [I-116]
5. CC1(NC[C@H](O)c2cccc3[nH]nc(Cl)c23)CCC1 [I-96]
6. N#Cc1cc([C@@H](O)CNC2CC2)c2cn[nH]c2c1 [I-153]

< 10 nM
100 to 1000 nM
10 to 100 nM
10 to 100 nM
< 10 nM
100 to 1000 nM

// each listed compound needs a value for EC50
1. CC[C@H](C)NC[C@H](O)c1cc(F)cc2[nH]ncc12 [I-34]
2. CCC(C)(C)NC[C@H](O)c1cc(F)cc2[nH]ncc12 [I-51]

1: < 10 nM; 2: < 10 nM
